measured-target: oestrone sulphatase (E1-STS) (Homo sapiens, UniProt P08842)
Construct: endogenous in cells; host or cells: MCF-7 breast cancer cells
Sequence (P08842 22-583): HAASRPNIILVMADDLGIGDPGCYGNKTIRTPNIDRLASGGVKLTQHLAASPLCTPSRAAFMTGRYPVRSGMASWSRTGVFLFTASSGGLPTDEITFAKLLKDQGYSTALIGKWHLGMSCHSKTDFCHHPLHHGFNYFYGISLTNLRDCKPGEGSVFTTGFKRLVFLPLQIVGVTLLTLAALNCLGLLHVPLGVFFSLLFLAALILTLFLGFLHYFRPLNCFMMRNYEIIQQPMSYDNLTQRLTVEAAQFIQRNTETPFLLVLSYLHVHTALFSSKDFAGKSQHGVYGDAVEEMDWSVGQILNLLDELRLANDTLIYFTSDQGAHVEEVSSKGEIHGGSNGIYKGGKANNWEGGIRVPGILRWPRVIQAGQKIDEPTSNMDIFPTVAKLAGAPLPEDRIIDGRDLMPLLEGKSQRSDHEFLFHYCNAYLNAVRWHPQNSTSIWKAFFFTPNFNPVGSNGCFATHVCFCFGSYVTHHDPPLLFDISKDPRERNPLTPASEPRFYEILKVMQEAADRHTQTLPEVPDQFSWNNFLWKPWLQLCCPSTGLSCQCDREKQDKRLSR
protocol-text: Oestrone sulphatase (E1-STS) inhibition in intact MCF-7 breast cancer cells
Assay type: cell-based
study-conditions: 0.1 μM
property-name: % Inhibition of sulphatase activity in MCF-7 cells (%)

Data request: Could you share which % Inhibition of sulphatase activity in MCF-7 cells value was measured for COc1ccc(C2CC(=O)c3c(O)cc(OS(N)(=O)=O)cc3O2)cc1OS(N)(=O)=O (stereo not shown) ?
Data returned: 2

[a] NS(=O)(=O)Oc1ccc(-c2cc(=O)c3c(O)cc(OS(N)(=O)=O)cc3o2)cc1 [Compound 9, 5-Hydroxy flavone-4′,7-O,O-bisulphamate]
[b] NS(=O)(=O)Oc1ccc2c(=O)cc(-c3ccccc3)oc2c1 [Compound 1, Flavone-7-O-sulphamate]
Data request: Which has the higher % Inhibition of sulphatase activity in MCF-7 cells, a or b ? Lab log: write the label of the selected item as the result.
Data returned: a
(a: 8%, b: 0.30%)

----------
measured-target: oestrone sulphatase (E1-STS) (Homo sapiens)
Construct: endogenous in cells; host or cells: MCF-7 breast cancer cells
protocol-text: Oestrone sulphatase (E1-STS) inhibition in intact MCF-7 breast cancer cells
Format: cell-based
study-conditions: 10 μM
property-name: % Inhibition of sulphatase activity in MCF-7 cells (%)

Data request: # returns recorded % Inhibition of sulphatase activity in MCF-7 cells (system: oestrone sulphatase (E1-STS) (Homo sapiens)) for NS(=O)(=O)Oc1cc(O)c2c(=O)c(OS(N)(=O)=O)c(-c3ccccc3)oc2c1 [Compound 10, 5-Hydroxy flavone-3,7-O,O-bisulphamate]
Data returned: 12

Data request: Continue with NS(=O)(=O)Oc1ccc2c(=O)cc(-c3ccccc3)oc2c1 [Compound 1, Flavone-7-O-sulphamate]
Data returned: 4.9

Data request: Continue with COc1ccc(-c2cc(=O)c3c(O)c(OC)c(OC)cc3o2)cc1OS(N)(=O)=O [Compound 6]
Data returned: 27

[a] NS(=O)(=O)Oc1ccc2oc(-c3ccccc3)cc(=O)c2c1 [Compound 2, Flavone-6-O-sulphamate]
[b] COc1ccc(C2CC(=O)c3c(O)cc(OS(N)(=O)=O)cc3O2)cc1OS(N)(=O)=O (stereo not drawn) [Compound 21]
Data request: Which has the higher % Inhibition of sulphatase activity in MCF-7 cells, a or b ? Lab log: write the label of the selected item as the result.
Data returned: a
(a: 98.9%, b: 9%)

----------
measured-target: oestrone sulphatase (E1-STS) (Homo sapiens, UniProt P08842)
Construct: endogenous in cells; host or cells: MCF-7 breast cancer cells
protocol-text: Oestrone sulphatase (E1-STS) inhibition in intact MCF-7 breast cancer cells
Type: cell-based
study-conditions: 10 μM
property-name: % Inhibition of sulphatase activity in MCF-7 cells (%)

Data request: Could you share which % Inhibition of sulphatase activity in MCF-7 cells value was measured for NS(=O)(=O)Oc1ccc(-c2coc3cc(O)cc(O)c3c2=O)cc1 [Compound 18, 5,7-Dihydroxy isoflavone-4′-O-sulphamate] ?
Data returned: 99

[A] NS(=O)(=O)Oc1ccc(-c2cc(=O)c3ccccc3o2)cc1OS(N)(=O)=O [Compound 8, Flavone-3′,4′-O,O-bisulphamate]
[B] COc1cc(O)c2c(=O)cc(-c3ccc(OS(N)(=O)=O)cc3)oc2c1
Data request: Which has the higher % Inhibition of sulphatase activity in MCF-7 cells, A or B ? Lab log: write the label of the selected item as the result.
Data returned: B

----------
measured-target: oestrone sulphatase (E1-STS) (Homo sapiens, UniProt P08842)
Construct: endogenous in cells; host or cells: MCF-7 breast cancer cells
protocol-text: Oestrone sulphatase (E1-STS) inhibition in intact MCF-7 breast cancer cells
Type: cell-based
study-conditions: 0.1 μM
property-name: % Inhibition of sulphatase activity in MCF-7 cells (%)

Data request: # returns recorded % Inhibition of sulphatase activity in MCF-7 cells (system: oestrone sulphatase (E1-STS) (Homo sapiens, UniProt P08842)) for NS(=O)(=O)Oc1ccc(-c2coc3cc(O)cc(O)c3c2=O)cc1 [Compound 18, 5,7-Dihydroxy isoflavone-4′-O-sulphamate]
Data returned: 23

[a] COc1cc2oc(-c3ccccc3)cc(=O)c2c(O)c1OS(N)(=O)=O [Compound 4]
[b] NS(=O)(=O)Oc1ccc(C2CC(=O)c3c(O)cc(O)cc3O2)cc1 (stereo not shown) [Compound 20, 5,7-Dihydroxyflavanone 4′-O-sulphamate]
Data request: When the recorded % Inhibition of sulphatase activity in MCF-7 cells values are compared, which is smaller: that of a or that of b ? Lab log: write the label of the selected item as the result.
Data returned: a
(a: 11%, b: 30%)

----------
measured-target: oestrone sulphatase (E1-STS) (Homo sapiens, UniProt P08842)
Construct: endogenous in cells; host or cells: MCF-7 breast cancer cells
protocol-text: Oestrone sulphatase (E1-STS) inhibition in intact MCF-7 breast cancer cells
Type: cell-based
study-conditions: 0.1 μM
property-name: % Inhibition of sulphatase activity in MCF-7 cells

// below: answered compounds
Data request: Could you share which % Inhibition of sulphatase activity in MCF-7 cells value was measured for NS(=O)(=O)Oc1ccc(-c2cc(=O)c3ccccc3o2)cc1OS(N)(=O)=O [Compound 8, Flavone-3′,4′-O,O-bisulphamate] ?
Data returned: * (*Inactive)

Data request: Continue with COc1ccc(-c2coc3cc(OS(N)(=O)=O)cc(O)c3c2=O)cc1
Data returned: * (*Inactive)

Data request: Continue with COc1ccc(-c2cc(=O)c3c(OC)c(OC)c(OC)cc3o2)cc1OS(N)(=O)=O
Data returned: 29 ± 0.8%

Data request: Continue with COc1ccc(-c2oc3cc(OS(N)(=O)=O)cc(O)c3c(=O)c2OS(N)(=O)=O)cc1
Data returned: * (*Inactive)

Data request: Continue with NS(=O)(=O)Oc1ccc(C2COc3cc(OS(N)(=O)=O)ccc3C2)cc1 (racemic) [Compound 22, (±) Isoflavane-7,4′-O,O-bisulphamate]
Data returned: >99%

New cases:
Data request: Could you share which % Inhibition of sulphatase activity in MCF-7 cells value was measured for COc1cc(O)c2c(=O)cc(-c3ccc(OS(N)(=O)=O)cc3)oc2c1 ?
Data returned: 35 ± 4.0%

Data request: Continue with COc1cc(-c2oc3cc(OS(N)(=O)=O)ccc3c(=O)c2OS(N)(=O)=O)cc(OC)c1OC
Data returned: * (*Inactive)

----------
measured-target: oestrone sulphatase (E1-STS) (Homo sapiens)
Construct: endogenous in cells; host or cells: MCF-7 breast cancer cells
protocol-text: Oestrone sulphatase (E1-STS) inhibition in intact MCF-7 breast cancer cells
Assay type: cell-based
study-conditions: 10 μM
property-name: % Inhibition of sulphatase activity in MCF-7 cells (%)

// below: answered compounds
Data request: Could you share which % Inhibition of sulphatase activity in MCF-7 cells value was measured for NS(=O)(=O)Oc1cc(O)c2c(=O)cc(-c3ccccc3)oc2c1 [Compound 3, 5-Hydroxyflavone 7-O-sulphamate] ?
Data returned: 20.6

Data request: Continue with NS(=O)(=O)Oc1ccc(-c2cc(=O)c3c(O)cc(OS(N)(=O)=O)cc3o2)cc1 [Compound 9, 5-Hydroxy flavone-4′,7-O,O-bisulphamate]
Data returned: 98

Data request: Continue with COc1ccc(-c2coc3cc(OS(N)(=O)=O)cc(O)c3c2=O)cc1
Data returned: 37

[I] COc1cc2oc(-c3ccccc3)cc(=O)c2c(O)c1OS(N)(=O)=O
[II] COc1ccc(-c2cc(=O)c3c(OC)c(OC)c(OC)cc3o2)cc1OS(N)(=O)=O
Data request: Which has the higher % Inhibition of sulphatase activity in MCF-7 cells, I or II ? Lab log: write the label of the selected item as the result.
Data returned: I
(I: 78%, II: 12%)

----------
measured-target: oestrone sulphatase (E1-STS) (Homo sapiens, UniProt P08842)
Construct: endogenous in cells; host or cells: MCF-7 breast cancer cells
protocol-text: Oestrone sulphatase (E1-STS) inhibition in intact MCF-7 breast cancer cells
Format: cell-based
study-conditions: 1 μM
property-name: % Inhibition of sulphatase activity in MCF-7 cells (%)

// below: answered compounds
Data request: Could you share which % Inhibition of sulphatase activity in MCF-7 cells value was measured for NS(=O)(=O)Oc1ccc(-c2cc(=O)c3c(O)cc(OS(N)(=O)=O)cc3o2)cc1 [Compound 9, 5-Hydroxy flavone-4′,7-O,O-bisulphamate] ?
Data returned: 79

Data request: Continue with NS(=O)(=O)Oc1cc(O)c2c(=O)cc(-c3ccccc3)oc2c1 [Compound 3, 5-Hydroxyflavone 7-O-sulphamate]
Data returned: 4.2

Data request: Continue with NS(=O)(=O)Oc1ccc2c(=O)cc(-c3ccccc3)oc2c1 [Compound 1, Flavone-7-O-sulphamate]
Data returned: 1.8

Data request: Continue with COc1ccc(C2CC(=O)c3c(O)cc(OS(N)(=O)=O)cc3O2)cc1OS(N)(=O)=O (stereo not drawn)
Data returned: 8

Data request: Continue with COc1cc(O)c2c(=O)cc(-c3ccc(OS(N)(=O)=O)cc3)oc2c1
Data returned: 88

[I] COc1ccc(-c2cc(=O)c3c(O)c(OC)c(OC)cc3o2)cc1OS(N)(=O)=O
[II] COc1cc2oc(-c3ccccc3)cc(=O)c2c(O)c1OS(N)(=O)=O
Data request: When the recorded % Inhibition of sulphatase activity in MCF-7 cells values are compared, which is smaller: that of I or that of II ? Lab log: write the label of the selected item as the result.
Data returned: I
(I: 18%, II: 51%)

[a] NS(=O)(=O)Oc1ccc(C2CC(=O)c3c(O)cc(O)cc3O2)cc1 (stereo not drawn) [Compound 20, 5,7-Dihydroxyflavanone 4′-O-sulphamate]
[b] NS(=O)(=O)Oc1ccc(-c2cc(=O)c3ccccc3o2)cc1OS(N)(=O)=O [Compound 8, Flavone-3′,4′-O,O-bisulphamate]
Data request: Which has the higher % Inhibition of sulphatase activity in MCF-7 cells, a or b ? Lab log: write the label of the selected item as the result.
Data returned: a
(a: 79%, b: 13%)
